Entry source: paper PMC5540273

# Test system: IRAK3
# protocolConditions: concentration: 1 μM, replicates: in singlicate; n = 1;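 also: KINOMEscan kinase panel screen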
observable: %Inh (%)

>>> assayvalue("COc1cc(Nc2nccc(N3CCC(NC(=O)C4COc5ccccc5O4)C3)n2)cc(OC)c1OC (stereo not drawn) [GSK1379761]")
76
>>> assayvalue("CCC(=O)c1c(-c2ccccc2)c2cc(Cl)ccc2c(=O)n1Cc1cc(S(C)(=O)=O)n(CC(N)=O)n1")
0
>>> assayvalue("Cc1ccc(Oc2ccc(Nc3ncnc4cc[nH]c34)cc2C)cn1")
16

###

# System: ARK5
# Construct: gene NUAK1
# protocolConditions: concentration: 1 μM, replicates: in singlicate; n = 1
The molecules listed here are annotated with their %Inh.
observable: %Inh (%)

>>> assayvalue("Cc1nc(N(C)[C@H]2CN(C(=O)CC#N)CC[C@H]2C)c2cc[nH]c2n1")
0
>>> assayvalue("COc1ccc(Nc2nccc(N3CCC(NS(=O)(=O)c4ccc(NC(C)=O)cc4)C3)n2)cc1 (centres unmarked)")
25
>>> assayvalue("Cc1ccc(Oc2ccc(Nc3ncnc4cc[nH]c34)cc2C)cn1")
0
>>> assayvalue("Nc1ncnc2c1ncn2-c1ccc(Cl)cc1")
0
>>> assayvalue("OCCCNc1nccc(-c2c(-c3cccc(C(F)(F)F)c3)nn3cc(C(F)(F)F)ccc23)n1")
0
>>> assayvalue("COc1cc(OC)cc(-c2cc3cnc(N)nc3nc2NC(=O)NC(C)(C)C)c1")
0
>>> assayvalue("COc1cccc(C2=C(N(C)c3ccccc3)C(=O)NC2=O)c1")
1
>>> assayvalue("COc1cc2ncn(-c3cc(OCc4ccncc4)c(C(N)=O)s3)c2cc1OC")
16
>>> assayvalue("Nc1ncnc2c1ncn2-c1cccc2ccccc12")
0
>>> assayvalue("Cc1c(Cn2c(C)nn3c(=O)cc(N4CCO[C@H](C)C4)nc23)cccc1C(F)(F)F")
2
>>> assayvalue("Cc1cc(Nc2nc(-c3cccc(C)n3)nc3ccccc23)ccn1")
9
>>> assayvalue("Nc1nc(-c2ccccc2F)c(-c2ccnc3ccccc23)s1")
0
>>> assayvalue("COc1cc2ncn(-c3cc(OCc4ccc(S(C)(=O)=O)cc4)c(C(N)=O)s3)c2cc1OC")
0
>>> assayvalue("CCCC(=O)Nc1n[nH]c2ncc(-c3cccc4ccccc34)cc12")
6
>>> assayvalue("Cl.NS(=O)(=O)c1cccc(Nc2cc(-c3ccc(F)cc3)n[nH]2)c1")
0
>>> assayvalue("CCn1c(-c2nonc2N)nc2ccccc21")
3
>>> assayvalue("CCc1nc(-c2cccc(C)c2)c(-c2ccncc2)s1")
17
>>> assayvalue("C[C@@H]1CC[C@H](C(=O)NC2CCCCC2)CN1c1cc(-c2ccc3c(N)n[nH]c3c2)nc(N)n1")
6
>>> assayvalue("CCC(=O)c1c(-c2ccccc2)c2cc(Cl)ccc2c(=O)n1Cc1cc(C(=O)NC2CC2)n(C)n1")
0
>>> assayvalue("CCC(=O)c1c(-c2ccccc2)c2cc(Cl)ccc2c(=O)n1Cc1cc(S(C)(=O)=O)n(CC(F)F)n1")
5
>>> assayvalue("FC(F)(F)c1ccc(-c2ncn(CCCN3CCOCC3)c2-c2ccncc2)cc1")
0
>>> assayvalue("Cl.c1ccc(Cn2cnc3cc(Nc4ncnc5ccccc45)ccc32)cc1")
0
>>> assayvalue("Cn1c(=O)c(F)c(Nc2ccc(I)cc2F)c2c(=O)n(OC[C@H](O)CO)cnc21")
0
>>> assayvalue("Nc1nc(N)c2nc(-c3ccccc3)[nH]c2n1")
73
>>> assayvalue("COc1ccc(-c2cc3c(C)nc(N)nc3n([C@H]3CC[C@H](O)CC3)c2=O)cn1")
4
>>> assayvalue("CCS(=O)(=O)c1ccc(OC)c(Nc2ncc(-c3ccc(F)cc3)o2)c1.Cl")
3
>>> assayvalue("Nc1n[nH]c2ncc(-c3ccccc3)cc12")
2
>>> assayvalue("COc1cc2ncn(-c3cc(OCCCc4ccccc4)c(C(N)=O)s3)c2cc1OC")
0
>>> assayvalue("COc1cc2ncn(-c3cc(OCc4ccncc4Br)c(C(N)=O)s3)c2cc1OC")
0

###

# Test system: PIK3CA
# protocolConditions: concentration: 1 μM, replicates: in singlicate; n = 1
observable: %Inh (%)

>>> assayvalue("COc1cc2ncn(-c3cc(OCCCc4ccccc4)c(C(N)=O)s3)c2cc1OC")
0
>>> assayvalue("Nc1n[nH]c2nnc(-c3ccccc3)c(-c3ccccc3)c12")
0
>>> assayvalue("CC(C)(C)c1ccc(C(=O)Nc2cn3cc(-c4ccccc4)ccc3n2)cc1")
0
>>> assayvalue("O=C(NCc1cccs1)c1cc(C(=O)c2c(Cl)cccc2Cl)c[nH]1")
0
>>> assayvalue("Nc1ncnc2c1ncn2-c1cccc2ccccc12")
2
>>> assayvalue("CCC(=O)c1c(-c2ccccc2)c2cc(Cl)ccc2c(=O)n1Cc1cc(C(=O)NC2CC2)n(C)n1")
0
>>> assayvalue("Cc1nnc(-c2ccc3ncn(-c4ccc(S(C)=O)cc4)c3c2)o1 (stereo not drawn)")
0
>>> assayvalue("CCCC(=O)Nc1n[nH]c2ncc(-c3cccc4ccccc34)cc12")
13
>>> assayvalue("Cc1ccccc1COc1cc(-n2cnc3cc(Cl)ccc32)sc1C(N)=O")
21
>>> assayvalue("COc1ccc(Nc2nccc(N3CCC(NS(=O)(=O)c4ccc(NC(C)=O)cc4)C3)n2)cc1 (stereo not drawn)")
4
>>> assayvalue("O=C(NCCNc1ccnc(Nc2ccc(F)cc2)n1)Nc1ccc2c(c1)OCO2")
7
>>> assayvalue("Fc1cccc(CSc2nnc(-c3ccc4c(c3)CCO4)o2)c1")
10
>>> assayvalue("Cc1nn2c(=O)cc(N3CCOCC3)nc2n1Cc1cccc(Cl)c1Cl")
5
>>> assayvalue("Cc1cccc(-c2cc(-c3c[nH]nc3-c3ccccn3)ccn2)c1")
0
>>> assayvalue("Nc1nc(N)c2nc(-c3ccccc3)[nH]c2n1")
6
>>> assayvalue("Cc1c(Cn2c(C)nn3c(=O)cc(N4CCO[C@H](C)C4)nc23)cccc1C(F)(F)F")
0
>>> assayvalue("Nc1nccc2scc(-c3ccc4c(c3)CCN4C(=O)Cc3ccccc3)c12")
0
>>> assayvalue("CCC(=O)c1c(-c2ccccc2)c2cc(Cl)ccc2c(=O)n1Cc1cc(S(C)(=O)=O)n(CCC(C)(C)O)n1")
32
>>> assayvalue("CN1C(=O)C(Nc2ccccc2)=C(c2ccccc2)C1=O")
25
>>> assayvalue("COC(=O)c1c(-c2ccccc2)c2cc(C)ccc2c(=O)n1Cc1ccccc1")
0
>>> assayvalue("C[C@@H]1CC[C@H](C(=O)NC2CCCCC2)CN1c1cc(-c2ccc3c(N)n[nH]c3c2)nc(N)n1")
0
>>> assayvalue("COc1cccc(C2=C(N(C)c3ccccc3)C(=O)NC2=O)c1")
0
>>> assayvalue("COc1ccc(-c2coc3ccc(-c4nnc(SCc5cccc(C#N)c5)o4)cc23)cc1")
0
>>> assayvalue("COc1cc2ncn(-c3cc(OCc4ccncc4)c(C(N)=O)s3)c2cc1OC")
1
>>> assayvalue("COc1cc(Nc2nccc(N3CCC(NC(=O)C(C)c4ccc(Cl)cc4)C3)n2)cc(OC)c1OC (stereo not drawn)")
6
>>> assayvalue("CN1C(=O)C(Nc2cc(Cl)c(O)c(Cl)c2)=C(c2ccc(Cl)cc2)C1=O")
0
>>> assayvalue("COc1cc2ncn(-c3cc(OCc4ccc(S(C)(=O)=O)cc4)c(C(N)=O)s3)c2cc1OC")
0

###

# Tested on: SNARK
# Construct: gene NUAK2
# protocolConditions: concentration: 1 μM, replicates: in singlicate; n = 1
observable: %Inh (%)

>>> assayvalue("CCC(=O)c1c(-c2ccccc2)c2cc(Cl)ccc2c(=O)n1Cc1cc(S(C)(=O)=O)n(CC(F)F)n1")
10
>>> assayvalue("Cc1nn2c(=O)cc(N3CCOCC3)nc2n1Cc1cccc(Cl)c1Cl")
0
>>> assayvalue("Nc1ncnc2c1ncn2-c1ccc(Cl)cc1")
0
>>> assayvalue("CCn1c(-c2nonc2N)nc2ccccc21")
51
>>> assayvalue("Cc1cc(Nc2nc(-c3cccc(C)n3)nc3ccccc23)ccn1")
0
>>> assayvalue("Cc1ccc(-c2ccc3c(ccc4sc5c(c43)NC[C@@H](C)N=C5N(C)C)n2)cn1")
0
>>> assayvalue("OCCCNc1nccc(-c2c(-c3cccc(C(F)(F)F)c3)nn3cc(C(F)(F)F)ccc23)n1")
0
>>> assayvalue("COc1ccc(Nc2nccc(N3CCC(NS(=O)(=O)c4ccc(NC(C)=O)cc4)C3)n2)cc1 (stereo not shown)")
2
>>> assayvalue("COc1cc2ncn(-c3cc(OCc4ccncc4Br)c(C(N)=O)s3)c2cc1OC")
0
>>> assayvalue("Nc1ncnc2c1ncn2-c1cccc(F)c1")
13
>>> assayvalue("Cc1nnc(-c2ccc(C)c(-c3ccc(C(=O)O)cc3)c2)o1")
5
>>> assayvalue("COc1cc2nccc(Nc3cccc(Oc4ccccc4)c3)c2cc1OC.Cl")
0
>>> assayvalue("FC(F)(F)c1ccc(-c2ncn(CCCN3CCOCC3)c2-c2ccncc2)cc1")
0
>>> assayvalue("COc1cc2ncn(-c3cc(OCc4ccncc4)c(C(N)=O)s3)c2cc1OC")
4
>>> assayvalue("CN(C)c1cc(-c2ccc3c(N)n[nH]c3c2)nc(N)n1")
0
>>> assayvalue("COC(=O)c1c(-c2ccccc2)c2cc(Br)ccc2c(=O)n1Cc1ccc(NC(=O)CCC(=O)O)cc1")
0
>>> assayvalue("Cl.c1ccc(Cn2cnc3cc(Nc4ncnc5ccccc45)ccc32)cc1")
0
>>> assayvalue("O=C1NC(=O)C(c2ccccc2)=C1Nc1cccc(O)c1")
16
>>> assayvalue("O=C(Nc1n[nH]c2cc(-c3ccccc3F)ccc12)C1CC1")
1
